Every entry's value here was drawn from paper PMC2756588.

Recorded SPOT intensity values for a group of binders are listed next.
- Target Of Assay: T1, Lsb4, P32793
- T1 sequence (P32793 402-468, looked up): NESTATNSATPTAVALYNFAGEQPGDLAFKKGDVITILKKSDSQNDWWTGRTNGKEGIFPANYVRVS
- Experiment Summary: SPOT array
- Details: median of control spots 397
Value Type: SPOT intensity

binder=LASNSPPVYPKRIRH value_type="SPOT intensity" observed_value=107
binder=LPMNIQPDLPPRKIM value_type="SPOT intensity" observed_value=1360
binder=QPWTDQFEKLEKEVS value_type="SPOT intensity" observed_value=0
binder=KRNRLKILLPFLEQS value_type="SPOT intensity" observed_value=0
binder=MTKTPETSPPKRPMG value_type="SPOT intensity" observed_value=36
binder=FVLRYYILIPHEQWD value_type="SPOT intensity" observed_value=0
binder=ISPPASPPPEFDFSK value_type="SPOT intensity" observed_value=0
binder=LLLLFVPDSPYDPAI value_type="SPOT intensity" observed_value=0
binder=GKLKHIPRRPYEIER value_type="SPOT intensity" observed_value=0
binder=NNFYRPLLRSVLVLL value_type="SPOT intensity" observed_value=0
binder=DKSRPPRPPPKPLHL value_type="SPOT intensity" observed_value=177
binder=TPEIPPPLPPKIMVH value_type="SPOT intensity" observed_value=42
binder=AIPPPVPNRPGGTTN value_type="SPOT intensity" observed_value=222
binder=YVRRRPRVRLEPLLS value_type="SPOT intensity" observed_value=3
binder=IHTRRPSSTSQYLIR value_type="SPOT intensity" observed_value=2
binder=KRKRFNLLLPKPYLT value_type="SPOT intensity" observed_value=1
binder=EVTPKVPERPSRRKT value_type="SPOT intensity" observed_value=317
binder=VGFRLALKFPSRITG value_type="SPOT intensity" observed_value=207
binder=NRARYLPQNPDIIAG value_type="SPOT intensity" observed_value=0
binder=FLIKFTPKFPQSIDH value_type="SPOT intensity" observed_value=63
binder=QRIRKIPGIPLMSVG value_type="SPOT intensity" observed_value=24
binder=LFMKGTPEFPKSGFS value_type="SPOT intensity" observed_value=50
binder=VQKRKLPLPGSIASA value_type="SPOT intensity" observed_value=13
binder=NTMKKRPAPPSLPSL value_type="SPOT intensity" observed_value=63
binder=DKKTKPTPPPKPSHL value_type="SPOT intensity" observed_value=0
binder=FYHRPAPKPPVTKKV value_type="SPOT intensity" observed_value=3
binder=DLFKPLPEPPTELGR value_type="SPOT intensity" observed_value=0
binder=FFRRSELYLPNSSKA value_type="SPOT intensity" observed_value=0
binder=VYTRTAFQIPGDDKI value_type="SPOT intensity" observed_value=0
binder=NLKKRPPTAPQRKIS value_type="SPOT intensity" observed_value=141
